Exercise: for every item that follows, state its recorded FOB.
Molecular target: T1, human SIRPβ1 isoform 1 on cells (human, UniProt O00241 30-398)
T1 construct: On CHO cells (low level), on BWZ/BW5147.G.1.4 cells (reporter cells co-express human DAP12) or on primary human myeloid cells; also called huSIRPβ1; BWZ-huSIRPβ1
T1 sequence (O00241 30-398): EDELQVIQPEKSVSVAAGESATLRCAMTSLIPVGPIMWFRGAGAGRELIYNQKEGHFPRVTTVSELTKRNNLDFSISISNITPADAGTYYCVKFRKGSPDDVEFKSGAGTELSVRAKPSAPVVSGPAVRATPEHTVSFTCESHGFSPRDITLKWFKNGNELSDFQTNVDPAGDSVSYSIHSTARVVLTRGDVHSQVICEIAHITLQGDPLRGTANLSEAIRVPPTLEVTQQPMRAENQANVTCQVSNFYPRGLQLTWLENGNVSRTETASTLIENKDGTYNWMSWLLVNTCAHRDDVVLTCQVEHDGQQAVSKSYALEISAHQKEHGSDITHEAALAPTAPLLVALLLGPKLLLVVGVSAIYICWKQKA
Assay: flow cytometry;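 also: antibody binding to cells detected with a PE-labelled secondary antibody, given as mean fluorescence intensity relative to background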
Respond numerically; units are fold over background and should not be typed.

Query (binder): SB-8-14 (antibody, V domains shown, IgG) VH: QVQLQESGPGLVKPSETLSLTCAVSGYSISPHYYWGWIRQPPGKGLEWIGSIYHSGHTYYNPSLKSRVTISVDTSKNQFSLKLSSVTAADTAVYYCARGGAMTPAGMDVWGQGTTVTVSS VL: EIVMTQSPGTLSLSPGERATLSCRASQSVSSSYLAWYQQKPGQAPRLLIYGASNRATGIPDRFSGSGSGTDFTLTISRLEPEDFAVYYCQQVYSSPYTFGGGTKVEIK ; field requested: FOB
7

Bench note: what FOB did SB-1-5 (antibody, V domains shown, IgG) VH: QVQLVESGGGVVQPGRSLRLSCAASGFTFSAYGMNWVRQAPGKGLEWVSAISASGRSTFYADSVKGRFTISRDNSKNTLYLQMNSLRAEDTAVYYCAKDFTEVVGWLGMDVWGQGTTVTVSS VL: EIVMTQSPGTLSLSPGERATLSCRASQSVSSSYLAWYQQKPGQAPRLLIYGASSRATGIPDRFSGSGSGTDFTLTISRLEPEDFAVYYCQLLGSSPRTFGGGTKVEIK show?
3

What value of FOB has been recorded for this entry: SB-1-2 (antibody, V domains shown, IgG) VH: QVQLVESGGGVVQPGRSLRLSCAASGFTFGSFGMNWVRQAPGKGLEWVSAITASGGSTFYADSVKGRFTISRDNSKNTLYLQMNSLRAEDTAVYYCAKDFTEVVGWLGMDVWGQGTTVTVSS VL: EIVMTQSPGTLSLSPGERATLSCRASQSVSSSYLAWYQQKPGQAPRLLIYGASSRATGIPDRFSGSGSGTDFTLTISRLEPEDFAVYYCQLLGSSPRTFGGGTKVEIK
4

Numbers sourced from patent US20250026827A1.
